Below, each entry is listed with its recorded viability.
- ASSAY SUMMARY: growth inhibitors of H69AR lung tumor, primary screen, human, duplicate replicates (AID 580);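 note: 100% = mean luminescence of untreated wells and 0% = no signal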
- PROTOCOL CONDITIONS: H69AR lung tumor cells viability, ATP luminescence, 72 h; at 10 µM; stronger effect = lower value
Active and inactive are the calls of the source.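 Rule for the calls: active = viability at or under a set limit in both replicates, limit being median viability minus 3 SD (cut at about 48% in these data, passing the limit was not always enough); inconclusive = at or under the limit in just one replicate; inactive = at or above the limit in both replicates.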

>>> meas_value("O=C(CSc1nc2c(sc3ccccc32)c(=O)n1Cc1ccco1)NCC1CCCO1 (centres undefined)")
"81.2% (inactive)"
>>> meas_value("NC(CO)C(=O)NNCc1ccc(O)c(O)c1O (centres undefined)")
"98.7% (inactive)"
>>> meas_value("COc1ccc(S(=O)(=O)Nc2cc(C)on2)cc1OC")
"105% (inactive)"
>>> meas_value("Cc1cc(C)cc(N2C(=O)C3C4C=CC(C4)C3C2=O)c1 (centres undefined)")
"93% (inactive)"
>>> meas_value("Cc1ccc(-c2nc3cc(NC(=O)C(C)C)ccc3o2)cc1C")
"72.9% (inactive)"
>>> meas_value("CCn1c(SCC(=O)Nc2ccc(C(=O)OC)cc2)nnc1-c1cccs1")
"92.3% (inactive)"

Would you kindly look at the next entry?
viability reading for CC(=O)Nc1c(O)[nH]c2ccccc12 : 93.6% (inactive)

---

- ASSAY SUMMARY: reversal of MRP1-mediated doxorubicin resistance, pilot screen, H69AR cells, doxorubicin co-treatment (AID 601)
- PROTOCOL CONDITIONS: H69AR cells, CellTiter-Glo, 72 h; compound alone cytotoxicity; at 10 µM
Below, each entry is listed with its recorded viability.
Answer by giving the amount and then stating its unit.

viability reading for COc1ccc(Cl)cc1-c1n[nH]c(=S)o1 : 95.5%

viability reading for O=C(CSc1nnc(-c2ccc(Br)cc2)n1C1CCCCC1)N1CCCC1 : 80.2%

viability reading for CC1Cc2ccccc2N1Cc1cc(=O)n2ccsc2n1 (configuration not stated) : 74.7%

---

- ASSAY SUMMARY: reversal of MRP1-mediated doxorubicin resistance, pilot screen, H69AR cells, doxorubicin co-treatment (AID 601)
- PROTOCOL CONDITIONS: H69AR cells + 2 uM doxorubicin, CellTiter-Glo, 72 h; measured here: viability with 2 uM doxorubicin; at 10 µM; stronger effect = lower value
Below, each entry is listed with its recorded viability.
Report the value in % with no unit label.

viability reading for COc1ccc(-c2nnn(CC(=O)c3ccc4c(c3)OCCO4)n2)cc1OC : 73.7

---

- ASSAY SUMMARY: growth suppression of yeast trafficking mutant, preliminary HTS, modulators of trafficking downstream of Golgi apparatus project, 1536-format plate, OD 615 nm (AID 637)
- PROTOCOL CONDITIONS: yeast transport mutant growth, absorbance 615 nm, 18 h; stronger effect = higher value
OUTCOME MEASURE: inhibition (%)
Report the value in % with no unit label.

>>> meas_value("Cc1ccccc1Cc1c(C)nc2c(C(=O)N3CCN(Cc4ccc5c(c4)OCO5)CC3)cnn2c1C")
1.48
>>> meas_value("Brc1ccc(C2=Nn3c(nnc3-c3ccncc3)SC2)cc1")
-0.36
>>> meas_value("Nc1nc(NC(=O)c2cccs2)nn1-c1ccccc1")
-4.29
>>> meas_value("C=CCn1c(=O)c(C(=O)Nc2ccccc2C(=O)OCC)c(O)c2ccccc21")
6.83
>>> meas_value("Cc1cc(C)c(S(=O)(=O)N(C)CC(N)=O)c(C)c1")
-4.13

Would you kindly look at the next entry?
inhibition reading for Cc1cc(C)c2c(N)c(C(=O)c3ccccc3)oc2n1 : 2.22

Sourced from PubChem BioAssay
